# Measured target: α-cobratoxin (Naja kaouthia, UniProt P01391 1-71)
# Sequence (P01391 whole entry): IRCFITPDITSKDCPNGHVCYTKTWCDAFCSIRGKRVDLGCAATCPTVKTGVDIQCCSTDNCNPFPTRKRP
# Method summary: fluorescence polarisation
# Condition: both partners purified

[
  {
    "Binder": "Ac-HAKTYMWDGWYMPTSH-NH2 [peptide 1 (Ac-HAKTYMWDGWYMPTSH-NH2)]",
    "Readout units": "µM",
    "IC50": 29
  }
]
